study_system: T1, PRLR-expressing cells (T47D) (Homo sapiens, UniProt P16471)
T1 construct: a native PRLR expressing cell line (T47D); endogenous in cells; host or cells: T47D
T1 sequence (P16471 25-622): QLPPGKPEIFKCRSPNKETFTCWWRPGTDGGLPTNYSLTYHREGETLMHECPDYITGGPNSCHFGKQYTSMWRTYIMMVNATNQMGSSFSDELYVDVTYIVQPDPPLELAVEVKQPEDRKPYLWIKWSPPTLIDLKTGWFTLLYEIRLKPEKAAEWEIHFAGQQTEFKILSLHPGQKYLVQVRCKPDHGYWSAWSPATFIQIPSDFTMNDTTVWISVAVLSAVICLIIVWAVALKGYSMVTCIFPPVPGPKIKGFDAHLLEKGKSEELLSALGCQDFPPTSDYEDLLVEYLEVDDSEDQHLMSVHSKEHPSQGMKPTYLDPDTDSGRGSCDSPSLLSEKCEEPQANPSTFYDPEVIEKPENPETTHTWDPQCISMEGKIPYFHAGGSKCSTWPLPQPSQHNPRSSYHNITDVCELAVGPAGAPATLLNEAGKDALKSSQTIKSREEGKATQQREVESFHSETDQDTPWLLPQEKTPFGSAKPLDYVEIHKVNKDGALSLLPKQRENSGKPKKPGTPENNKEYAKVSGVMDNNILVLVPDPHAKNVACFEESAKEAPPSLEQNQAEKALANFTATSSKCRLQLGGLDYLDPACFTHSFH
assay_comment: Antibody binding and internalization by PRLR-expressing cells (imaging)
Assay type: cell-based
experimental_context: [mAb] (0.67 nM), whole cell alexa488 intensity at 37° C.
assay_metric: % Total Binding relative to Control I (%)
Reply numerically in %, unit not repeated.

Observe how each entry below is paired with its result.
molecule	% Total Binding relative to Control I (%)
H1H6781P: anti-PRLR antibody, human IgG1 Fc; HCVR/LCVR SEQ ID NOs 50/58 (antibody, V domains shown, human IgG1 Fc) VH: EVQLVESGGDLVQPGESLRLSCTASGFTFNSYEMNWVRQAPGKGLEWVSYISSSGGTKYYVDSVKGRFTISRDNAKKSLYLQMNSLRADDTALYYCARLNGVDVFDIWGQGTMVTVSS VL: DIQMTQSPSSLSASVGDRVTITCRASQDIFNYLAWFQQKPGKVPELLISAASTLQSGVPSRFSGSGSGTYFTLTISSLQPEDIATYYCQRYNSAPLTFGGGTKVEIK	166.2
H1H6953N: human IgG1 Fc form of H1M6953N; anti-PRLR; HCVR/LCVR SEQ ID NOs 274/282 (antibody, V domains shown, human IgG1 Fc) VH: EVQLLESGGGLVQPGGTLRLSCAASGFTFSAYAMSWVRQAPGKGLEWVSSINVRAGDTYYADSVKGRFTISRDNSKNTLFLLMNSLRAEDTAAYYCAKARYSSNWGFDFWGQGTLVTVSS VL: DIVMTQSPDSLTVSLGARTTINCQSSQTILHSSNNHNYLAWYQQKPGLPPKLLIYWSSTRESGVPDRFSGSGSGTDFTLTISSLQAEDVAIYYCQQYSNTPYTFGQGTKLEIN	164.2
H1H6803P: anti-PRLR antibody, human IgG1 Fc; HCVR/LCVR SEQ ID NOs 226/234 (antibody, V domains shown, human IgG1 Fc) VH: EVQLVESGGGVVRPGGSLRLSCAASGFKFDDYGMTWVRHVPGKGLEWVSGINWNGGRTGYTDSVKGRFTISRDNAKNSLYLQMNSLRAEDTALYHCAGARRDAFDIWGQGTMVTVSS VL: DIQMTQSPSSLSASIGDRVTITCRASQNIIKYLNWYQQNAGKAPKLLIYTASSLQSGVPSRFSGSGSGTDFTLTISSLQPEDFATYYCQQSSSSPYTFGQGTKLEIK	205.5

From here, focus on the item given below.
Ask | Endpoint output: % Total Binding relative to Control I of H1H6960N: human IgG1 Fc form of H2M6960N; anti-PRLR; HCVR/LCVR SEQ ID NOs 322/330 (antibody, V domains shown, human IgG1 Fc) VH: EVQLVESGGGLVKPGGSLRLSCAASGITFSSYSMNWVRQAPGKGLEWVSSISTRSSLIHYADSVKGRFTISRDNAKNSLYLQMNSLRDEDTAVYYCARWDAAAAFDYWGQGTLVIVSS VL: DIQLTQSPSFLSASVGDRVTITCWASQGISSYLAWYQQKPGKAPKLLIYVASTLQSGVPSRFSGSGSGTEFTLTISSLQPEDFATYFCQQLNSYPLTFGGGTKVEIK . Value?
Reply | 89.7
